All figures here come from patent US20230190760A1.

experiment: Plasma PK and interconversion in monkeys; format: in vivo; details: monkey, Compound 1 60 μg/kg or 100 μg/kg PO, dose normalized to 1 mg/kg
Listed next: entries and their corresponding Cmax.
parameter_measured: Cmax (ng/mL)

• O=C1CC[C@H](N2C(=O)c3cccc4c(Cc5ccc(CN6CCOCC6)cc5)ccc2c34)C(=O)N1 (single isomer, unassigned) [Compound 1] = 83
• O=C1CC[C@@H](N2C(=O)c3cccc4c(Cc5ccc(CN6CCOCC6)cc5)ccc2c34)C(=O)N1 [Compound 14] = 5

---

system: anaplastic large cell lymphoma (ALCL) cell lines; experiment: Anti-cancer activity in ALCL cell lines; format: cell-based; conditions: four out of six cell lines were responsive; read-out: mean IC50 among the responsive lines
parameter_measured: IC50 (nM)

• O=C1CC[C@H](N2C(=O)c3cccc4c(Cc5ccc(CN6CCOCC6)cc5)ccc2c34)C(=O)N1 (single isomer, unassigned) = 1.7

---

experiment: Plasma PK and interconversion in rat; type: in vivo; conditions: Compound 1 30 mg/kg PO, dose normalized to 1 mg/kg
parameter_measured: AUC(0-inf) (ng·h/mL)

- O=C1CC[C@H](N2C(=O)c3cccc4c(Cc5ccc(CN6CCOCC6)cc5)ccc2c34)C(=O)N1 (single isomer, unassigned): 784
- O=C1CC[C@@H](N2C(=O)c3cccc4c(Cc5ccc(CN6CCOCC6)cc5)ccc2c34)C(=O)N1: 47

---

test system: multiple myeloma cell lines; assay: Anti-cancer activity in a panel of multiple myeloma cell lines; format: cell-based; details: eight of twelve were responsive, read-out: mean IC50 among responsive lines
pIC50: −log10 of the molar value.
parameter_measured: pIC50

• O=C1CC[C@H](N2C(=O)c3cccc4c(Cc5ccc(CN6CCOCC6)cc5)ccc2c34)C(=O)N1 (single isomer, unassigned) = 9.52

---

tested on: SU-DHL-2; assay: Anti-proliferative activity, 96 hours; settings: Homo sapiens, SU-DHL-2, 96 h
parameter_measured: IC50 (nM)

• O=C1CC[C@H](N2C(=O)c3cccc4c(Cc5ccc(CN6CCOCC6)cc5)ccc2c34)C(=O)N1 (single isomer, unassigned) [Compound 1] = 4.55

---

# Lookup of reported pIC50 keyed by entry
test system: TMD8; assay: Anti-proliferative activity, 96 hours; conditions: Homo sapiens, TMD8, 96 h
pIC50: −log10 of the molar value.
parameter_measured: pIC50

- O=C1CC[C@H](N2C(=O)c3cccc4c(Cc5ccc(CN6CCOCC6)cc5)ccc2c34)C(=O)N1 (single isomer, unassigned): 10.11
- Nc1cccc2c1C(=O)N(C1CCC(=O)NC1=O)C2=O (centres unmarked) [Pomalidomide, reference compound]: 6.49

---

system: cutaneous T-cell lymphoma (CTCL) cell lines; test: Anti-cancer activity in CTCL cell lines; assay type: cell-based; details: three of four cell lines tested were responsive, read-out: mean IC50 among the responsive lines
parameter_measured: IC50 (nM)

• O=C1CC[C@H](N2C(=O)c3cccc4c(Cc5ccc(CN6CCOCC6)cc5)ccc2c34)C(=O)N1 (single isomer, unassigned) = 30

---

system: SR; experiment: Anti-proliferative activity, 96 hours; conditions: Homo sapiens
pIC50: −log10 of the molar value.
parameter_measured: pIC50

- O=C1CC[C@H](N2C(=O)c3cccc4c(Cc5ccc(CN6CCOCC6)cc5)ccc2c34)C(=O)N1 (single isomer, unassigned): 7.79

---

tested on: RL; experiment: Anti-proliferative activity, 96 hours; conditions: Homo sapiens
parameter_measured: IC50 (nM)

• O=C1CC[C@H](N2C(=O)c3cccc4c(Cc5ccc(CN6CCOCC6)cc5)ccc2c34)C(=O)N1 (single isomer, unassigned) [Compound 1] = 2.32
